Test: Antioxidant activity in SDS micelles assessed as inhibition rate constant for AAPH-induced linoleic acid peroxidation
Format: functional
Measured INH accompanies every entry in the list below.
Quick reminder: number only, in ×10⁴ L/mol/s, skip the unit.

Worked examples follow.
Lookup: GET /values?readout=INH&item= Oc1ccc(/C=C/c2ccc(O)cc2)cc1
Found: 1.4

Lookup: Give the measured INH of Oc1ccc(/C=C/c2cc(O)cc(O)c2)cc1 .
Found: 1.3

Lookup: Given Oc1cc(/C=C/c2ccccc2)cc(O)c1O , state its recorded INH.
Found: 3.1

Lookup: Sample Oc1ccc(/C=C/c2ccccc2)cc1O — what was its INH?
Found: 2.9

Lookup: Query: INH; subject: Oc1ccc(/C=C/c2ccccc2)cc1
Found: 1.2

# next compound below
Lookup: Need INH of Oc1cc(O)cc(/C=C/c2ccccc2)c1 , thanks.
Found: 1.7

###

inhibition values, listed per item
System: Radical scavenging activity
Assay: Antioxidant activity assessed as inhibition of DPPH free radical formation
Assay type: functional
Parameters: concentration or dose not given beside the values
Details: dose or concentration not given here
Could you give me the number in %? Just the number is fine.

Solved entries:
Lookup: Query: inhibition; subject: Oc1cc(O)cc(/C=C/c2cc(O)cc(O)c2)c1
Found: 46.5

Lookup: Recorded inhibition of Oc1cc(O)cc(/C=C/c2ccccc2)c1 , please.
Found: 29.8

Lookup: GET /values?readout=inhibition&item= Oc1cc(O)cc(/C=C/c2ccc(O)c(O)c2)c1
Found: 67.1

Lookup: Which inhibition value is on record for Oc1ccc(/C=C/c2cc(O)c(O)c(O)c2)cc1 ?
Found: 92.9

Lookup: Can you share its inhibition? I mean this compound: Oc1ccc(/C=C/c2cc(O)cc(O)c2)cc1 [RESVERATROL]
Found: 55.1

Others:
Lookup: GET /values?readout=inhibition&item= Oc1cc(O)cc(/C=C/c2cc(O)c(O)c(O)c2)c1
Found: 92.9

###

Test: Antioxidant activity assessed as inhibition rate constant in AAPH-induced human LDL peroxidation
Type: functional
Label T when INH >= 4 ×10⁵ L/mol/s; otherwise F.

A selection of reference data follows.
Lookup: Could you tell me if the measured INH of Oc1ccc(/C=C/c2ccc(O)cc2)cc1 reaches 4 ×10⁵ L/mol/s or more?
Found: T

Lookup: Check the entry Oc1ccc(/C=C/c2ccccc2)c(O)c1 : does INH equal or exceed 4 ×10⁵ L/mol/s?
Found: T

Lookup: API: above_or_equal(metric=INH, cutoff=4 ×10⁵ L/mol/s) for item Oc1cc(O)cc(/C=C/c2ccccc2)c1
Found: F

Lookup: Is INH for Oc1ccc(/C=C/c2ccc(O)cc2O)cc1 at or above 4 ×10⁵ L/mol/s?
Found: F

Lookup: Exam item: decide whether the reported INH for Oc1ccc(/C=C/c2cc(O)cc(O)c2)cc1 is at least 4 ×10⁵ L/mol/s.
Found: T

Lookup: Reported INH reaches at least 4 ×10⁵ L/mol/s for Oc1ccc(/C=C/c2ccccc2)cc1O ?
Found: T

Others:
Lookup: Please tell me: is the molecule Oc1ccc(/C=C/c2ccc(O)c(O)c2)cc1O at or over 4 ×10⁵ L/mol/s in terms of INH?
Found: F

Lookup: Is reported INH greater than or equal to 4 ×10⁵ L/mol/s here: Oc1ccc(/C=C/c2ccc(O)c(O)c2)cc1
Found: T
